tested on: SN12C; assay: NCI tumour cell line growth inhibition, 48 h
Calls of active or inactive are those of the source. Cut-off read from the data, not from the text of the source: active = GI50 up to about 1.1 µM and inactive = higher.
Answer with one of the outcomes yes (1) (active), no (0) (inactive)

{"columns": ["COMPOUND", "TARGET_UNDER_TEST", "LABEL"],
 "data": [
  ["CC(C)Cc1ccc(C(C)/C=C2\\CCC(CN3CCCC3)C2=O)cc1 (configuration not stated)", "SN12C", "no (0)"],
  ["O=C(O)c1ccccc1Sc1ccccc1[N+](=O)[O-]", "SN12C", "no (0)"],
  ["COc1c(C)c2c(c3c1c(=O)c1ccccc1n3C)C=CC(C)(C)O2", "SN12C", "no (0)"]
]}

Returns: the outcome recorded for Cc1cccc(Cl)c1NCC(O)CN1CCN(C)CC1 (configuration not stated) in this assay.
no (0)

Returns: the outcome recorded for CCCCCCCCCCCCCP(=O)(O)O in this assay.
no (0)

Returns: the outcome recorded for Cc1n[nH]c(=O)n1/N=C/c1c[nH]c2ccccc12 in this assay.
no (0)

Returns: the outcome recorded for CCCCCCCCCCCCN(CC(O)C(O)C(OC1OC(CO)C(O)C(O)C1O)C(O)CO)C(=O)CCCCCCCCCCC (configuration not stated) in this assay.
no (0)

Returns: the outcome recorded for COc1ccc(C(=O)O)c(Cc2ccc3ccccc3c2)c1 in this assay.
no (0)

* * *

tested on: A549; experiment: NCI tumour cell line growth inhibition, 48 h
Active and inactive are the calls of the source. Rule as the data show it: active = GI50 up to about 1.1 µM and inactive = higher.
Answer with one of the outcomes y for active, n for inactive

{"columns": ["MOLECULE", "LABEL"],
 "data": [
  ["OC1(C(Sc2cc(C(F)(F)F)cc(C(F)(F)F)c2)Sc2cc(C(F)(F)F)cc(C(F)(F)F)c2)C=CCCC1 (stereo not given)", "n"],
  ["COC1(OC)C[C@H](C)[C@@]23O[C@]24c2cc(O)c5c(c2N[C@H]3C#C/C=C\\C#C[C@]14O)C(=O)c1ccccc1C5=O", "y"],
  ["COc1ccc(C(C)Nc2cc(OC)c(OC)c(OC)c2)cc1 (stereo not given)", "n"],
  ["Cc1cc(C)n(CC(Cn2nc(C)cc2C)=C(/C(Cl)=C(/Cl)Nc2ccc([N+](=O)[O-])cc2)[N+](=O)[O-])n1", "n"],
  ["CC(C)CCC[C@@H](C)[C@H]1CC[C@H]2[C@@H]3CC=C4C[C@@H](OC(=O)c5cccc6c(=O)c7ccccc7[nH]c56)CC[C@]4(C)[C@H]3CC[C@]12C", "n"]
]}

Returns: the outcome recorded for CC[n+]1[b-](C(C)(C)C)n(/N=C/C(C)(C)C)[b-](C(C)(C)C)[n+]1CC in this assay.
n

Returns: the outcome recorded for CC(=O)Oc1ccc(-c2c(OC(C)=O)c(OC(C)=O)c(-c3ccc(OC(C)=O)c(OC(C)=O)c3)c(OC(C)=O)c2OC(C)=O)cc1 in this assay.
n

Returns: the outcome recorded for CCOc1cc2c(cc1OC)c[n+](C)c1c3cc(OC)c(OC)cc3ccc21 in this assay.
n

* * *

test system: HT-29; assay: NCI tumour cell line growth inhibition, 48 h
Calls of active or inactive are those of the source. No stated cut-off is given here; in the data, active = GI50 up to about 1.1 µM and inactive = higher.
MEASURED_PARAMETER: GI50

{"columns": ["COMPOUND", "TARGET_UNDER_TEST", "GI50"],
 "data": [
  ["O=C1/C(=C/c2cccc([N+](=O)[O-])c2)Cc2ccccc21", "HT-29", "> 100 µM (inactive)"]
]}

Return reported GI50. Input compound: N#C[C@](CO)(NC(=O)OCc1ccccc1)C(F)F
> 100 µM (inactive)

Return reported GI50. Input compound: COc1ccc(-c2cc(-c3ccc(Nc4ccnc5cc(Cl)ccc45)cc3)[nH]c(=O)c2C#N)c2ccccc12
2 µM (inactive)

Return reported GI50. Input compound: Cc1cn(C2CC(OP(=O)(O)OCC3OC(n4c[n+]([BH2-]C#N)c5c(=O)[nH]c(N)nc54)CC3O)C(CO)O2)c(=O)[nH]c1=O (stereo unspecified)
> 100 µM (inactive)

Return reported GI50. Input compound: Cn1c(=O)c2[nH]c(C3CC(=O)CC(c4nc5c([nH]4)c(=O)n(C)c(=O)n5C)N3)nc2n(C)c1=O (stereo unspecified)
> 100 µM (inactive)

Return reported GI50. Input compound: CCO/C=N\C1=C(C#N)SC2=N/C(=C\c3ccc(OC)cc3)C(=O)N21
> 100 µM (inactive)

* * *

tested on: HOP-62; experiment: NCI tumour cell line growth inhibition, 48 h
The source made the active and inactive calls. No stated cut-off is given here; in the data, active = GI50 up to about 1.1 µM and inactive = higher.
Answer with one of the outcomes active, inactive

Field: example entries. Status: answers known.
{"columns": ["COMPOUND", "TARGET_UNDER_TEST", "LABEL"],
 "data": [
  ["COc1ccc(/C=C2\\OC(=O)C(Cl)=C2c2ccc(OC)c(Cl)c2)cc1", "HOP-62", "inactive"],
  ["Cc1cc(C)nc(NS(=O)(=O)c2ccc(NC(=O)c3ccc(Cl)c4c(Nc5ccc(S(=O)(=O)N=C(N)N)cc5)c5ccccc5nc34)cc2)n1", "HOP-62", "inactive"],
  ["CC(=O)N1CC(=O)NC1=S", "HOP-62", "inactive"],
  ["COc1cc(OC)c2nc(C)c(CCCl)c(Cl)c2c1", "HOP-62", "inactive"]
]}

Returns: the outcome recorded for O=C1C(Br)=CC2(C=C1Br)CCNC1=C2C(=O)c2ncccc2C1=O in this assay.
active

Returns: the outcome recorded for CC(=O)N/C(=C\c1cccc([N+](=O)[O-])c1)c1nc2ccc3c(c2[nH]1)C(=O)c1ccccc1C3=O in this assay.
inactive

Returns: the outcome recorded for CC(C)NC(=O)OCc1c(COC(=O)NC(C)C)n(C)c2c1ccc1ccsc12 in this assay.
inactive

Returns: the outcome recorded for COc1ccc(C(=O)O[C@@H]2CCN3CC[C@H](C)[C@H]23)cc1 in this assay.
inactive

Returns: the outcome recorded for N#CCCN(CCC#N)c1ccc(C(Sc2ccccc2)C(NC(=O)c2cc([N+](=O)[O-])ccc2Cl)C(=O)Sc2ccccc2)cc1 (configuration not stated) in this assay.
inactive

Returns: the outcome recorded for COc1ccc(-c2cc(-c3ccccc3)nc(N)c2-c2ccc3ccccc3c2)cc1 in this assay.
inactive

Returns: the outcome recorded for FC(F)(F)c1ccc2nc(Sc3ccc4ccccc4c3)cnc2c1 in this assay.
inactive

Returns: the outcome recorded for O=C1C=CC(=O)C(CNc2ccc(C(=O)OCc3ccccc3)cc2)=C1 in this assay.
inactive

Returns: the outcome recorded for COc1ccc(C(C)Nc2cc(OC)c(OC)c(OC)c2)cc1 (configuration not stated) in this assay.
inactive

Returns: the outcome recorded for O=S(=O)(O)c1cc(S(=O)(=O)O)c2c(/N=N/c3cccc4ccccc34)c(O)ccc2c1 in this assay.
inactive

Returns: the outcome recorded for CCOC(=O)c1sc2nc(SC)nc3c2c1NCN3c1ccccc1Cl in this assay.
inactive

Returns: the outcome recorded for CO/N=C1\CC(NC(=O)C(F)(F)F)c2ccsc21 (configuration not stated) in this assay.
inactive

Returns: the outcome recorded for CCC(=O)OC1CCn2c1nc1c2C(=O)C(C)=C(NC(C)=O)C1=N (configuration not stated) in this assay.
inactive

Returns: the outcome recorded for CC(=O)Nc1ccc(C(=O)NN2C(=O)CSC2c2ccc(O)cc2)cc1 (configuration not stated) in this assay.
inactive

Returns: the outcome recorded for CN(NC(=O)c1cccs1)C1=NCCCCN1 in this assay.
inactive

Returns: the outcome recorded for Cc1cc(C)c2c(O)cc(-c3cccc(F)c3)nc2n1 in this assay.
active

* * *

tested on: CAKI-1; assay: NCI tumour cell line growth inhibition, 48 h
Activity calls are given as the source filed them. Cut-off read from the data, not from the text of the source: active = GI50 up to about 1.1 µM and inactive = higher.
Answer with one of the outcomes class 1 for active, class 0 for inactive

Field: example entries. Status: answers known.
{"columns": ["MOLECULE", "LABEL"],
 "data": [
  ["O=CNC(Cc1c[nH]cn1)C(=O)O (stereo unspecified)", "class 0"],
  ["C/C(=N\\Nc1nc2ccccc2s1)c1cccnn1", "class 1"],
  ["CCN1CCN(c2nc3ccccc3nc2C(=O)c2ccc(OC)cc2)CC1", "class 0"],
  ["COC(=O)c1cc2ccc(N)nc2[nH]c1=O", "class 0"],
  ["C#C[C@]1(O)CC[C@H]2[C@@H]3CCC4=C/C(=N/OC(=O)c5cccc6c(=O)c7ccccc7[nH]c56)CC[C@@H]4[C@H]3CC[C@@]21C", "class 0"]
]}

Returns: the outcome recorded for OCC(O)CNc1ncnc2ccccc12 (stereo unspecified) in this assay.
class 0

Returns: the outcome recorded for O=NC1c2cccc3cccc(c23)C1N=O (stereo unspecified) in this assay.
class 0

Returns: the outcome recorded for COC(=O)C1(C(=O)OC)CC2=C(S(=O)(=O)c3ccccc3)C[C@@H](C#N)[C@H]2C1 in this assay.
class 0

Returns: the outcome recorded for CC(=O)N/C(=C\c1cccc([N+](=O)[O-])c1)c1nc2ccc3c(c2[nH]1)C(=O)c1ccccc1C3=O in this assay.
class 0

Returns: the outcome recorded for CCC1C(c2cc(OC)c(OC)c(OC)c2)c2cc3c(cc2OC1N1CCCC1)OCO3 (stereo unspecified) in this assay.
class 1

Returns: the outcome recorded for COC(=O)c1ccccc1CC1Cc2ccc3c(c2C1=O)CCCC3 (stereo unspecified) in this assay.
class 0

Returns: the outcome recorded for Cc1cn(Cc2ccccc2CCl)c(=O)[nH]c1=O in this assay.
class 0

Returns: the outcome recorded for O=C(O)c1ccccc1/N=C/c1ccc(N(CCCl)CCCl)cc1 in this assay.
class 0

Returns: the outcome recorded for O=C(O)c1ccccc1.[Ag] in this assay.
class 0
